Reference source: ChEMBL document CHEMBL1129831

The next entries give measured Ki for D(3) dopamine receptor (Homo sapiens, UniProt P35462).
Number in nM, nothing else.

Below, each entry is followed by its recorded Ki result.
CCN(Cc1ccc(-c2cc(S(=O)(=O)CC)ccc2OC)[nH]1)C1CCc2ccccc21 (centres undefined)
0.794
CCN(Cc1ccc(-c2cc(S(=O)(=O)CC)ccc2OC)[nH]1)Cc1ccccc1C
3.16
CCN(Cc1ccc2c(c1)OCO2)Cc1ccc(-c2cc(S(=O)(=O)CC)ccc2OC)[nH]1
0.631

Alright, here's another compound for you.
The value of Ki measured for the compound `CCN(Cc1ccc(-c2cc(S(=O)(=O)CC)ccc2OC)[nH]1)[C@@H](C)c1ccccc1` turned out to be 2.51
